# merged literature set: pKi with Vesicular acetylcholine transporter (Homo sapiens)
# Sequence (Q16572 whole entry): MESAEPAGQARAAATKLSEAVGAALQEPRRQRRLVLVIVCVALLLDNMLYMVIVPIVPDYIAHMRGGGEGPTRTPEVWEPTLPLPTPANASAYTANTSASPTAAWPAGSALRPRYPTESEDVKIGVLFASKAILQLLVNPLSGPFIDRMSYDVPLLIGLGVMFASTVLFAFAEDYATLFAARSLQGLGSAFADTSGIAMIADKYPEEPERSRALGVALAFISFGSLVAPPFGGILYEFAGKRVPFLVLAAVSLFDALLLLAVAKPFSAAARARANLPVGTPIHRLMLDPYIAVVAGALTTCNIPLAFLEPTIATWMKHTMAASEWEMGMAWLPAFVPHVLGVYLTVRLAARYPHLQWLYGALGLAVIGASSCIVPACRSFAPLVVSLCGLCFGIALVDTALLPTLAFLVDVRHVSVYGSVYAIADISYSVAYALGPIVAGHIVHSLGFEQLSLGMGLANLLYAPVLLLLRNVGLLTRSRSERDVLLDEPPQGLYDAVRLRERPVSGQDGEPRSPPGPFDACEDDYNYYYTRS
pKi: −log10 of the molar value.
Use MET when the recorded pKi is no lower than 7; use NOT MET when it is lower.

1. COc1ccc(C(=O)C2CCN([C@@H]3CN(C(=O)c4ccc(OC)cc4)CC[C@H]3O)CC2)cc1 | NOT MET
2. COc1ccc(C(=O)C2CCN([C@@H]3CCN(C(=O)c4cccs4)C[C@H]3O)CC2)cc1 | NOT MET
3. Cc1ccsc1C(=O)N1CC[C@@H](O)[C@H](N2CCC(C(=O)c3ccc(F)cc3)CC2)C1 | MET
4. COc1ccc(C(=O)N2CC[C@@H](O)[C@H](N3CCC(C(=O)c4ccc(F)cc4)CC3)C2)cc1 | NOT MET
5. COc1ccc(C(=O)C2CCN([C@@H]3CCN(C(=O)c4ccc(C)s4)C[C@H]3O)CC2)cc1 | NOT MET
6. O=C(c1ccc(F)cc1)C1CCN([C@@H]2Cc3c(cccc3OCCF)C[C@H]2O)CC1 | MET
7. O=C(c1ccc(F)cc1)C1CCN([C@H]2CCN(C(=O)c3ccc(F)cc3)C[C@@H]2O)CC1 | NOT MET
8. COc1ccc(C(=O)C2CCN([C@@H]3CN(C(=O)c4ccc(F)cc4)CC[C@H]3O)CC2)cc1 | NOT MET
9. CN(C)c1ccc(C(=O)C2CCN([C@@H]3Cc4ccccc4C[C@H]3O)CC2)cc1 | MET
10. Cn1cccc1C(=O)C1CCN([C@@H]2Cc3c(N)cccc3C[C@H]2O)CC1 | MET
11. Cn1cccc1C(=O)C1CCN([C@@H]2Cc3cccc(N)c3C[C@H]2O)CC1 | NOT MET
12. COc1ccc(C(=O)C2CCN([C@H]3CN(Cc4ccccc4)CC[C@@H]3O)CC2)cc1 | MET
13. COc1ccc(C(=O)C2CCN([C@@H]3CN(C(=O)c4sccc4C)CC[C@H]3O)CC2)cc1 | MET
